B1: PPP2R2B (parent)
chain: RNTKRDVTLEASRENSKPRAILKP

Variants of: B1
assay.method.text: protein stability index of a GFP-peptide fusion (GPS, HEK-293T) (PSI 1-6); higher = more stable;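 note: lentivirally expressed fusions sorted by FACS into six bins by GFP to DsRed ratio, PSI derived from sequencing read proportions per bin multiplied by bin number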
condition.notes: c terminus: a fixed tail appended
Lab note: anything with protein stability index at or over 4 counts as class 1; the rest go in class 0.

variant.identifier | classification
S12A | class 1
R1A | class 1
P18E | class 1
S12R | class 1
R5G | class 1
R5W | class 0
I21C | class 1
L9A | class 1
P24Q | class 1
E10F | class 0
S16A | class 1
K23N | class 1
A20Q | class 1
T8W | class 0
T8I | class 1
S16W | class 0
K23C | class 1
A11N | class 1
T8E | class 1
N15K | class 1
R1N | class 1
